// data source = patent US20050267182A1

# Tested on: MV4,11 cells
# Measurement Description: FLT3 assay using MV4,11 cells (cellular proliferation, MTS)
# Type: cell-based, human
# Test Parameters: cell assay code CS0001
Metric: Cell Assay: CS0001:IC50

| Molecule Smiles | Metric | Obs Value |
| --- | --- | --- |
| Cc1sc(NC(=O)Nc2ccc(Cl)cc2)c(C(N)=O)c1C | Cell Assay: CS0001:IC50 | + + |
| CC(C)(C)c1cc(NC(=O)Nc2ccc(NC(=O)c3ccc(Br)cc3)cc2)no1 | Cell Assay: CS0001:IC50 | + + |
| Cc1cccnc1-c1noc(-c2ccc(NC(=O)Nc3cc(C(C)(C)C)on3)cc2)n1 | Cell Assay: CS0001:IC50 | + + + + |
| CC(C)(C)c1cc(NC(=O)Nc2ccc([N+](=O)[O-])cc2)no1 | Cell Assay: CS0001:IC50 | + + + |
| CC(C)(C)c1cc(NC(=O)Nc2ccc(NC(=O)c3csc(-c4ccncc4)n3)cc2)no1 | Cell Assay: CS0001:IC50 | + + + + |
| CC(C)(C)c1cc(NC(=O)Nc2ccc(NC(=O)c3cc4cccnc4nc3C(F)(F)F)cc2)no1 | Cell Assay: CS0001:IC50 | + + + |
| CC(C)(C)c1cc(NC(=O)Nc2ccc(OCc3cccc(F)c3)cc2)no1 | Cell Assay: CS0001:IC50 | + + + + |
| COc1cc(NC(=O)CCC(=O)N2CCNC(=O)CC2)ccc1NC(=O)Nc1cc(C(C)(C)C)on1 | Cell Assay: CS0001:IC50 | + + |
| Cc1nn(C)c(Cl)c1C(=O)Nc1ccc(NC(=O)Nc2cc(C(C)(C)C)on2)cc1 | Cell Assay: CS0001:IC50 | + + + + |
| Cc1ccc(NC(=O)c2ccc(NC(=O)Nc3cc(C(C)(C)C)on3)cc2)cc1 | Cell Assay: CS0001:IC50 | + + + + |
| COc1cc(OC)nc(Oc2ccccc2C(=O)Nc2ccc(NC(=O)Nc3cc(C(C)(C)C)on3)cc2)n1 | Cell Assay: CS0001:IC50 | + + |
| CC(C)(C)c1cc(NC(=O)Nc2ccc(OCC3CC3)cc2)no1 | Cell Assay: CS0001:IC50 | + + + + |
| CC(C)(C)c1cc(NC(=O)Nc2ccc(NC(=O)CSCC(=O)Nc3ccccc3)cc2)no1 | Cell Assay: CS0001:IC50 | + + + + |
| CC(C)c1cc(NC(=O)Nc2ccc(NC(=O)C3CCN(c4ncc(C(F)(F)F)cc4Cl)CC3)cc2)no1 | Cell Assay: CS0001:IC50 | + + + + |
| CC(C)(C)c1cc(NC(=O)Nc2ccc3c(c2)OCO3)no1 | Cell Assay: CS0001:IC50 | + + + |
| CC(C)(C)c1cc(NC(=O)Nc2ccc(OCc3ccccc3)cc2)on1 | Cell Assay: CS0001:IC50 | + + + + |
| COc1cc(OC)nc(N(C)c2cccc(C(=O)Nc3ccc(NC(=O)Nc4ccon4)cc3)c2)n1 | Cell Assay: CS0001:IC50 | + + + |

###

# Target Or Test System: FLT3 (Homo sapiens)
# Construct: FLT3(DKIN); made in house
# Sequence (P36888 610-943 limits assumed): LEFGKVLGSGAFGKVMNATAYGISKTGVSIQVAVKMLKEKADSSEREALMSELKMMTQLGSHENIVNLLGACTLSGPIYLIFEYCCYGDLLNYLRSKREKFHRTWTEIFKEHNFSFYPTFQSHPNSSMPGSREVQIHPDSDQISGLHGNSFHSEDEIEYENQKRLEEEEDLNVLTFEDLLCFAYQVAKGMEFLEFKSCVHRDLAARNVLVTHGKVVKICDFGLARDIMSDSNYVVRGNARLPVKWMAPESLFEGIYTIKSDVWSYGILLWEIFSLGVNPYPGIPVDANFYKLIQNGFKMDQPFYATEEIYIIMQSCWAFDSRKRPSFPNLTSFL
# Measurement Description: Binding constant (Kd) measurement, phage-displayed kinase competition binding assay
# Test Parameters: FLT3(DKIN) construct
Metric: Binding Assay: FLT3(DKIN)

| Compound | Metric | Obs Value |
| --- | --- | --- |
| CNC(=O)c1ccc(NC(=O)Nc2cc(C(C)(C)C)on2)cc1 | Binding Assay: FLT3(DKIN) | + + + + |
| CC(C)(C)c1cc(NC(=O)Nc2ccc(NC(=O)c3ccc(SC(F)(F)F)cc3)cc2)no1 | Binding Assay: FLT3(DKIN) | + + + |
| Cn1cc(C(=O)Nc2ccc(NC(=O)Nc3cc(C(C)(C)C)on3)cc2)c2ccccc21 | Binding Assay: FLT3(DKIN) | + + + + |
| Cc1ccc(-n2nc(C(C)(C)C)cc2NC(=O)Nc2ccc(C(C)C)cc2)cc1 [Compound D1] | Binding Assay: FLT3(DKIN) | + + |
| CN1CN(c2ccc(OCc3ccccc3)cc2)C(=O)N(c2cc(C(C)(C)C)on2)C1 | Binding Assay: FLT3(DKIN) | + + + |
| CC(C)(C)c1cc(NC(=O)Nc2ccc(NC(=O)c3cnccn3)cc2)no1 | Binding Assay: FLT3(DKIN) | + + + + |
| CC(C)(C)c1cc(NC(=O)Nc2ccc(NC(=O)c3cccc4nsnc34)cc2)no1 | Binding Assay: FLT3(DKIN) | + + + + |
| Cc1cc(NC(=O)Nc2ccc(OCc3ccccc3)cc2)n(-c2ccccc2)n1 | Binding Assay: FLT3(DKIN) | + + + |
| Cc1c(NC(=O)Nc2cc(C(C)(C)C)on2)c(=O)n(-c2ccccc2)n1C | Binding Assay: FLT3(DKIN) | + + |
| Cn1nc(C(C)(C)C)cc1NC(=O)Nc1ccc(OCc2ccccc2)cc1 | Binding Assay: FLT3(DKIN) | + + + + |
| CC(C)(C)c1cc(NC(=O)Nc2ccc(NC(=O)c3ccc(OC(F)(F)F)cc3)cc2)no1 | Binding Assay: FLT3(DKIN) | + + |
| COc1ccc(N(C)C(=O)Nc2cc(C(C)(C)C)on2)cc1 | Binding Assay: FLT3(DKIN) | + + + |
| CC(C)(C)c1cc(NC(=O)Nc2ccc(NC(=O)c3ccccn3)cc2)no1 | Binding Assay: FLT3(DKIN) | + + + + |
| COc1cc2ncnc(Nc3ccc(NC(=O)Nc4cc(C(C)(C)C)on4)cc3)c2cc1OC | Binding Assay: FLT3(DKIN) | + + + + |
| CC(C)(C)c1cc(NC(=O)Nc2ccc(C(=O)Nc3ccc(Cl)cc3)cc2)no1 | Binding Assay: FLT3(DKIN) | + + + + |
| Cc1[nH]c(C(=O)Nc2ccc(NC(=O)Nc3cc(C(C)(C)C)on3)cc2)c(C)c1CCC(=O)O | Binding Assay: FLT3(DKIN) | + + + + |
| CC(C)(C)c1cc(NC(=O)Nc2ccc(NC(=O)c3cn4cc(Cl)ccc4n3)cc2)no1 | Binding Assay: FLT3(DKIN) | + + + + |
| CC(C)(C)c1cc(NC(=O)Nc2ccc(OCC3CCC3)cc2)no1 | Binding Assay: FLT3(DKIN) | + + + + |
| CC(C)(C)c1cc(NC(=O)Nc2ccc(NC(=O)CC(N)c3ccccc3Cl)cc2)no1 (stereo not drawn) | Binding Assay: FLT3(DKIN) | + + |
| CC(C)(C)c1cc(NC(=O)Nc2ccc(NC(=O)c3nccnc3C(N)=O)cc2)no1 | Binding Assay: FLT3(DKIN) | + + + + |
| Cc1nc(C(=O)Nc2ccc(NC(=O)Nc3cc(C(C)(C)C)on3)cc2)nn1-c1cc(Cl)cc(Cl)c1 | Binding Assay: FLT3(DKIN) | + + + |
| Cn1cc(C(=O)Nc2ccc(NC(=O)Nc3cc(C(C)(C)C)on3)cc2)c(C(F)(F)F)n1 | Binding Assay: FLT3(DKIN) | + + + + |
| CC(C)(C)c1cc(NC(=O)Nc2ccc(OCc3ccc(OC(F)(F)F)cc3)cc2)no1 | Binding Assay: FLT3(DKIN) | + + + + |
| COc1cccc(COc2ccc(NC(=O)Nc3cc(C(C)(C)C)on3)cc2)c1 | Binding Assay: FLT3(DKIN) | + + + + |
| CC(C)(C)c1cc(NC(=O)Nc2ccc(NC(=O)c3cc(Cl)nc(Cl)c3)cc2)no1 | Binding Assay: FLT3(DKIN) | + + + |
| CC(C)(C)c1cc(NC(=O)Nc2ccc(NC(=O)c3csnn3)cc2)no1 | Binding Assay: FLT3(DKIN) | + + + + |
| CC(C)(C)c1cc(NC(=O)Nc2ccc(NC(=O)c3cc4cc(Br)ccc4s3)cc2)no1 [Compound N126] | Binding Assay: FLT3(DKIN) | + + + + |
| CC(C)(C)c1cc(NC(=O)Nc2ccc(NC(=O)c3ncc[nH]3)cc2)no1 | Binding Assay: FLT3(DKIN) | + + + + |
| CC(C)(C)c1cc(NC(=O)Nc2ccncc2)no1 | Binding Assay: FLT3(DKIN) | + + |
| CC(C)Oc1ccc(NC(=O)Nc2cc(C(C)(C)C)no2)cc1 | Binding Assay: FLT3(DKIN) | + + + + |
| CC(C)(C)c1cc(NC(=O)Nc2ccc(NC(=O)c3cccc4nc5cc(O)cc(O)c5cc34)cc2)no1 | Binding Assay: FLT3(DKIN) | + + + |
| COc1ccc(N2CCCN(c3cc(C(C)(C)C)no3)C2=O)cc1 | Binding Assay: FLT3(DKIN) | + + |
| Cc1cccc(C(=O)Nc2ccc(NC(=O)Nc3cc(C(C)(C)C)on3)cc2)n1 | Binding Assay: FLT3(DKIN) | + + + + |
